Reference source for all entries: patent US20080200448A1

# system.tested: P2Y12 receptor (Homo sapiens, UniProt Q9H244)
# Construct: expressed in transfected cells; host or cells: CHO cells (membrane preparation)
# Sequence (Q9H244 whole entry): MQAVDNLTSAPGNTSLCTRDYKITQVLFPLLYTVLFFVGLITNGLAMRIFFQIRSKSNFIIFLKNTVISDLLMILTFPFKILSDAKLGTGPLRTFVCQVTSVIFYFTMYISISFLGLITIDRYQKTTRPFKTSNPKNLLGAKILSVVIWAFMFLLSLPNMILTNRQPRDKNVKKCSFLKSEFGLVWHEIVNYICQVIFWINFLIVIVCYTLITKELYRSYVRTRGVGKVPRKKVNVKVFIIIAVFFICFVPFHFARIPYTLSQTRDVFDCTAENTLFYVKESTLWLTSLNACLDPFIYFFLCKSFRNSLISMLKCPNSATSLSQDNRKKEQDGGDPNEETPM
# experimental.protocol: Functional inhibition of 2-Me-S-ADP induced P2Y12 signalling (35S-GTPγS binding, cell membranes)
# Format: biochemical
# details: 35S-GTPγS assay, membranes, EC80 concentration of 2-methyl-thio-adenosine diphosphate, 30° C. for 45 min; read-out: GTPγS (IC50 μM)
Label key: met means IC50 under 0.04 µM; not met means IC50 of 0.04 µM or more.

Some solved entries appear below for comparison.
CCCOC(=O)c1cc(Cl)c(N2CCC(C(=O)NS(=O)(=O)N(C)c3ccc(F)cc3)CC2)nc1CN1CCCC1=O [Example 95]; not met
COc1ccc(CS(=O)(=O)NC(=O)C2CCN(c3nc(CN4CCCC4=O)c(C(=O)OC(C)C)cc3C#N)CC2)cc1 [Example 83]; met
CCOC(=O)c1cc(C#N)c(N2CCC(C(=O)NS(=O)(=O)Cc3ccccc3)CC2)nc1OC(C)=O [Example 2]; met
CCOC(=O)c1cc(C#N)c(N2CC(C(=O)NS(=O)(=O)Cc3ccccc3)C2)nc1CN=[N+]=[N-] [Example 9]; not met

Is IC50 strictly under 0.04 µM for the entry CCOC(=O)c1cc(C#N)c(N2CCC(C(=O)N(C)S(=O)(=O)Cc3ccccc3)CC2)nc1CN1CCCCC1=O [Example 128] ? not met

Is IC50 strictly under 0.04 µM for the entry CCOC(=O)c1cc(C#N)c(N2CCC(C(=O)NS(=O)(=O)Cc3ccc(C(F)(F)F)cc3)CC2)nc1CN1CCCCC1=O [Example 59] ? met

* * *

# system.tested: P2Y12 receptor (Homo sapiens, UniProt Q9H244)
# Construct: expressed in transfected cells; host or cells: CHO cells (membrane preparation)
# experimental.protocol: Functional inhibition of 2-Me-S-ADP induced P2Y12 signalling (35S-GTPγS binding, cell membranes)
# Format: biochemical
# details: 35S-GTPγS assay, membranes, EC80 concentration of 2-methyl-thio-adenosine diphosphate, 30° C. for 45 min; read-out: GTPγS (IC50 μM)
measured.quantity: IC50
Write your answer as a measured quantity: the number, then the unit.

Example compounds with recorded IC50:
CCOC(=O)c1cc(C#N)c(N2CCC(C(=O)NS(=O)(=O)Cc3ccc([Si](C)(C)C)cc3)CC2)nc1CN1CCCC1=O; 0.138 µM
CCOC(=O)c1cc(C#N)c(N2CCC(C(=O)NS(=O)(=O)Cc3ccccc3)CC2)nc1CCC(C)=O; 0.022 µM
CCOC(=O)c1cc(C#N)c(N2CC(C(=O)NS(=O)(=O)Cc3ccccc3)C2)nc1CN(C)C; 1.07 µM

Shifting focus to the compound that follows.
Item "CC(C)OC(=O)c1cc(C#N)c(N2CCC(C(=O)NS(=O)(=O)N(C)c3ccccc3)CC2)nc1CN1CCCC1=O" : provide IC50 0.021 µM

* * *

Overview of reported IC50 across a group of compounds:
# system.tested: P2Y12 receptor (Homo sapiens)
# Construct: expressed in transfected cells; host or cells: CHO cells (membrane preparation)
# experimental.protocol: Functional inhibition of 2-Me-S-ADP induced P2Y12 signalling (35S-GTPγS binding, cell membranes)
# Format: biochemical
# details: 35S-GTPγS assay, membranes, EC80 concentration of 2-methyl-thio-adenosine diphosphate, 30° C. for 45 min; read-out: GTPγS (IC50 μM)
# Procedure: Functional inhibition of- the P2Y12 receptor can be measured by in vitro assays using cell membranes from P2Y12 transfected CHO-cells, the methodology is indicated below. Functional inhibition of 2-Me-S-ADP induced P2Y12 signalling: 5 μg of membranes were diluted in 200 μl of 200 mM NaCl, 1 mM MgCl2, 50 mM HEPES (pH 7.4), 0.01% BSA, 30 μg/ml saponin and 10 μM GDP. […]
Number only, in µM; omit the unit.

CCOC(=O)c1cc(C#N)c(N2CC(C(=O)NS(=O)(=O)Cc3ccccc3)C2)nc1CSCCNC(C)=O; 0.081
CCOC(=O)c1ccc(N2CCC(C(=O)NS(=O)(=O)Cc3ccccc3)CC2)nc1CN1CCCC1=O; 0.103
CC(C)OC(=O)c1cc(C#N)c(N2CCC(C(=O)NS(=O)(=O)Cc3ccc(Cl)cc3F)CC2)nc1CN1CCCC1=O; 0.014
CCOC(=O)c1cc(C#N)c(N2CCC(C(=O)NS(=O)(=O)Cc3ccccc3)CC2)nc1SCCNC(C)=O; 0.01
CCOC(=O)c1cc(C#N)c(N2CCC(C(=O)NS(=O)(=O)Cc3ccccc3)CC2)nc1OCCn1cccc1; 0.05

Item "CCOC(=O)c1cc(C#N)c(N2CCC(C(=O)NS(=O)(=O)N(C)c3ccccc3)CC2)nc1CN1CCCCC1=O" : provide IC50 0.036

Item "CC(C)OC(=O)c1cc(C#N)c(N2CCC(C(=O)NS(=O)(=O)Nc3ccc(F)cc3)CC2)nc1CN1CCCC1=O" : provide IC50 0.038

Item "CCOC(=O)c1cc(C#N)c(N2CCC(C(=O)NS(=O)(=O)Cc3ccccc3)CC2)nc1OCCO" : provide IC50 0.031

Item "CC(C)OC(=O)c1cc(C#N)c(N2CCC(C(=O)NS(=O)(=O)CC3CCCCC3)CC2)nc1CN1CCCC1=O" : provide IC50 0.028

Item "CCOC(=O)c1cc(C#N)c(N2CCC(C(=O)NS(=O)(=O)Cc3ccccc3)CC2)nc1OCC(N)=O" : provide IC50 0.072

Item "CCOC(=O)c1cc(Cl)c(N2CCC(C(=O)NS(=O)(=O)CC3CCCCC3)CC2)nc1CN1CCCC1=O" : provide IC50 0.194

Item "CC(C)OC(=O)c1cc(C#N)c(N2CCC(C(=O)NS(=O)(=O)N(C)c3ccc(F)cc3)CC2)nc1CN1CCCC1=O" : provide IC50 0.014

Item "CCOC(=O)c1cc(C#N)c(N2CCC(C(=O)NS(=O)(=O)Cc3ccc(C(F)(F)F)cc3)CC2)nc1CN1CCCC1=O" : provide IC50 0.0097

Item "CCOC(=O)c1cc(C#N)c(N2CCC(C(=O)NS(=O)(=O)Cc3ccc(F)cc3F)CC2)nc1CN1CCCCC1=O" : provide IC50 0.02

Item "CCOC(=O)c1cc(Cl)c(N2CCC(C(=O)NS(=O)(=O)Cc3ccc(F)cc3F)CC2)nc1CN1CCCC1=O" : provide IC50 0.033

Item "CCOC(=O)c1cc(C#N)c(N2CCC(C(=O)NS(=O)(=O)Cc3ccccc3)CC2)nc1O[C@@H](C)C(=O)OCC" : provide IC50 0.019

Item "CCOC(=O)c1cc(C#N)c(N2CCC(C(=O)NS(=O)(=O)CC3CCCCC3)CC2)nc1CN1CCCC1=O" : provide IC50 0.021

Item "CCCOC(=O)c1cc(F)c(N2CCC(C(=O)NS(=O)(=O)Cc3ccccc3)CC2)nc1CN1CCCC1=O" : provide IC50 0.122

Item "CCOC(=O)c1cc(C#N)c(N2CCC(C(=O)NS(=O)(=O)Cc3ccccc3)CC2)nc1CN1CCCC1=O" : provide IC50 0.0097

Item "CCOC(=O)c1cc(C#N)c(N2CCC(C(=O)NS(=O)(=O)Cc3ccc(F)cc3)CC2)nc1CN1CCCC1=O" : provide IC50 0.025

Item "CCSC(=O)c1cc(C#N)c(N2CCC(C(=O)NS(=O)(=O)Cc3ccc(C)cc3)CC2)nc1CN1CCCC1=O" : provide IC50 4.53

Item "CCOC(=O)CSCc1nc(N2CCC(C(=O)NS(=O)(=O)Cc3ccccc3)CC2)c(C#N)cc1C(=O)OCC" : provide IC50 0.077

Item "CCOC(=O)c1cc(C#N)c(N2CCC(C(=O)NS(=O)(=O)Cc3ccccc3)CC2)nc1CSCCC(=O)OC" : provide IC50 0.042

Item "CCOC(=O)c1cc(C#N)c(N2CC(C(=O)NS(=O)(=O)Cc3ccccc3)C2)nc1CSCCO" : provide IC50 0.066

Item "CCOC(=O)c1cc(C#N)c(N2CCC(C(=O)NS(=O)(=O)Nc3ccccc3)CC2)nc1CN1CCCCC1=O" : provide IC50 0.14

Item CCOC(=O)c1cc(C#N)c(N2CCC(C(=O)NS(=O)(=O)CC3CCC(C)CC3)CC2)nc1CN1CCCC1=O (centres unmarked) : provide IC50 0.03

Item "CCOC(=O)c1cc(C#N)c(N2CC(C(=O)NS(=O)(=O)Cc3ccccc3)C2)nc1CSCC" : provide IC50 0.106

Item "CCOC(=O)c1cc(C#N)c(N2CCC(C(=O)NS(=O)(=O)Cc3ccccc3)CC2)nc1CN=[N+]=[N-]" : provide IC50 0.025

Item "COC(=O)c1cc(Cl)c(N2CCC(C(=O)NS(=O)(=O)Cc3ccccc3)CC2)nc1CN1CCCCC1=O" : provide IC50 1.58
